The reader will find reported relative viability values listed item by item below.
system: Calu-6; assay: relative viability (nuclei count vs DMSO), 5 days (fraction); higher = more cells survive; settings: first compound 1.265 µM

# annotated cases, reported relative viability shown
{"COMPOUND": "Clc1ccc(Nc2nnc(Cc3ccncc3)c3ccccc23)cc1 [Vatalanib] + CS(=O)(=O)CCNCc1ccc(-c2ccc3ncnc(Nc4ccc(OCc5cccc(F)c5)c(Cl)c4)c3c2)o1 [Lapatinib] (partner 2 µM)", "REPORTED_RESULT": 1.05}
{"COMPOUND": "Clc1ccc(Nc2nnc(Cc3ccncc3)c3ccccc23)cc1 [Vatalanib] + Cc1nc(NC(=O)N2CCC[C@H]2C(N)=O)sc1-c1ccnc(C(C)(C)C(F)(F)F)c1 [Alpelisib] (partner 2 µM)", "REPORTED_RESULT": 0.958}
{"COMPOUND": "Clc1ccc(Nc2nnc(Cc3ccncc3)c3ccccc23)cc1 [Vatalanib] + CS(=O)(=O)N1CCN(Cc2cc3nc(-c4cccc5[nH]ncc45)nc(N4CCOCC4)c3s2)CC1 [Pictilisib] (partner 1 µM)", "REPORTED_RESULT": 0.883}
{"COMPOUND": "Clc1ccc(Nc2nnc(Cc3ccncc3)c3ccccc23)cc1 [Vatalanib] + COc1cc2c(Oc3ccc(NC(=O)C4(C(=O)Nc5ccc(F)cc5)CC4)cc3F)ccnc2cc1OCCCN1CCOCC1 [Foretinib] (partner 0.25 µM)", "REPORTED_RESULT": 0.869}

### Prompt Record Clc1ccc(Nc2nnc(Cc3ccncc3)c3ccccc23)cc1 [Vatalanib] + CC1(C)CCC(c2ccc(Cl)cc2)=C(CN2CCN(c3ccc(C(=O)NS(=O)(=O)c4ccc(N[C@H](CCN5CCOCC5)CSc5ccccc5)c(S(=O)(=O)C(F)(F)F)c4)cc3)CC2)C1 [Navitoclax] (partner 0.5 µM) : what is its relative viability with Calu-6?
### Response 0.788

Values from the supplement of paper PMC10307832
